biological target: MPXV E8L ectodomain, His-tagged recombinant protein (mpox virus (MPXV), isolate MPXV_USA_2022_MA001); assay: SPR; BiaCore T200; […]; 1:1 binding model
Reported koff by item:
Response body: numeric value in s⁻¹, unit text excluded.

Solved cases (3 shown):
BINDER | RESULT
Nanobody E8L-04 (VHH) VHH: QVQLVESGGGLVQAGGSLRLSCAASGRIFGRRAMGWYRQAPGKEREFVAAISNGFNTNYADSVKGRFTISRDNAKNTVYLQMNSLKPEDTAVYYCAATVSRRGEQTFFYDYWGQGTQVTVSS | 0.0015
Nanobody E8L-02 (VHH) VHH: QVQLVESGGGLVQAGGSLRLSCAASGRIFTDSYMGWYRQAPGKEREFVACITTGSSTYYADSVKGRFTISRDNAKNTVYLQMNSLKPEDTAVYYCAARFRYTVQHWFHTKFDYWGQGTQVTVSS | 0.0003
Nanobody E8L-03 (VHH) VHH: QVQLVESGGGLVQAGGSLRLSCAASGFIFTTRGMGWYRQAPGKEREFVACIFPGSSTNYADSVKGRFTISRDNAKNTVYLQMNSLKPEDTAVYYCAAEGPYRGFNFKKNLYDYWGQGTQVTVSS | 0.0034

What koff value was documented for this binder, Nanobody E8L-07 (VHH) VHH: QVQLVESGGGLVQAGGSLRLSCAASGSIFKRYKMGWYRQAPGKEREFVACINKGGDTNYADSVKGRFTISRDNAKNTVYLQMNSLKPEDTAVYYCAVKRHAKAYGEFFYDYWGQGTQVTVSS ?
0.0018
